Molecular target: Met receptor (EGFR/Met chimeric cells, EMR) (Homo sapiens, UniProt P08581)
Construct: expressed in transfected cells; the other entry of the earlier key: EGFR (P00533, Epidermal growth factor receptor)
Sequence (P08581 with tags, fused parts or gaps): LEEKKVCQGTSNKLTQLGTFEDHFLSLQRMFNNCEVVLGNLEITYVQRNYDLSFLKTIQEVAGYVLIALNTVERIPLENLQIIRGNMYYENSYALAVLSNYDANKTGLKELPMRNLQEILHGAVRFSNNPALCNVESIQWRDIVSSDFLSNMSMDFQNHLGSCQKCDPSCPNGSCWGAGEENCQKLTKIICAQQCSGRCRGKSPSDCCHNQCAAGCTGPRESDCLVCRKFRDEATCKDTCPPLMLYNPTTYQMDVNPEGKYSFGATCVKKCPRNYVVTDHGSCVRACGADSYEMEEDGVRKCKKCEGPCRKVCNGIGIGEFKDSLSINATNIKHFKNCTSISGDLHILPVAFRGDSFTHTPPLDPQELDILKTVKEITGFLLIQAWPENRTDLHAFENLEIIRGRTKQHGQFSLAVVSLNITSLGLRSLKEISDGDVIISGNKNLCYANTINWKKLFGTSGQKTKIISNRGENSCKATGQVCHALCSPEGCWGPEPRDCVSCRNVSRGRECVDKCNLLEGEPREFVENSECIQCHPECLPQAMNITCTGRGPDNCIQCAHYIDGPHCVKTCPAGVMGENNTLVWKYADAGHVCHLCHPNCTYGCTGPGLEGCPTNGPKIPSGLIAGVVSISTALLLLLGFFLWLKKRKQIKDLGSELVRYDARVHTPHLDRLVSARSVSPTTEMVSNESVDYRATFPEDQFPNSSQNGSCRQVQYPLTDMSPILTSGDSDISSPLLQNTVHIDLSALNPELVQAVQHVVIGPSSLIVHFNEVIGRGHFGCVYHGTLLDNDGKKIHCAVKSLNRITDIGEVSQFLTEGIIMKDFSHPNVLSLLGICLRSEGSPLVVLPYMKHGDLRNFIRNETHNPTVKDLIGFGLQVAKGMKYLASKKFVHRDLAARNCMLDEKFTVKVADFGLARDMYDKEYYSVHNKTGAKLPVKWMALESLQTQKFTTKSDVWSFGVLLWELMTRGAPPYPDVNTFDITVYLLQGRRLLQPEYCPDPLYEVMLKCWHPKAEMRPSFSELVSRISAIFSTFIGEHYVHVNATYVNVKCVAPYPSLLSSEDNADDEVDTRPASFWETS
Experiment: Met Autophosphorylation Assay
Assay type: biochemical
Settings: protocol P.130
Recorded Met Kinase % Inhibition (P.130) determines the group label, using lo (below 30%), med (30% to below 60%), hi (60% or more)

Worked examples follow.
[
  {
    "compound": "CN(C)CCCOc1ccc(C=C2C(=O)Nc3ccc(I)cc32)cc1 [10739/B09]",
    "classification": "hi"
  },
  {
    "compound": "O=C1Nc2ccc(I)cc2C1=Cc1cc(O)c(O)c(O)c1 [10739/B07]",
    "classification": "hi"
  },
  {
    "compound": "Cc1c(Br)cc(Br)c2c1C(=Cc1cc(F)ccc1F)C(=O)N2 [10737/H04]",
    "classification": "hi"
  },
  {
    "compound": "CNS(=O)(=O)c1ccc2c(c1)C(=Cc1ccccc1OC)C(=O)N2 [10738/D09]",
    "classification": "lo"
  },
  {
    "compound": "Cc1c(Br)ccc2c1C(=Cc1ccc(O)cc1Cl)C(=O)N2 [10739/C06]",
    "classification": "med"
  }
]

Next compound, please.
Input line: Assign a category based on measured Met Kinase % Inhibition (P.130) for Cc1c(Br)ccc2c1C(=Cc1cccc(Oc3cccc(C(F)(F)F)c3)c1)C(=O)N2 [10737/C11] and give only the class name.
Output line: med

* * *

Catalogue of PDGF Kinase % Inhibition (P.119) readings, one per entry.
Tested on: PDGF-R
Test: PDGF-R Assay (cellular ELISA, U1242 cells)
Type: cell-based
Design: concentration or dose not given beside the values
Conditions: protocol P.119
Field format: number, assumed %, no unit text.

Please review the following examples before continuing.
[
  {
    "molecule": "O=C1Nc2ccc(CCCl)cc2C1=Cc1ccc(OCc2ccccc2)cc1 [10739/G04]",
    "studyTarget": "PDGF-R",
    "uom": "%",
    "PDGF Kinase % Inhibition (P.119)": "−3.5"
  },
  {
    "molecule": "O=C1Nc2ccc(I)cc2C1=Cc1ccc2ccccc2c1 [10737/B08]",
    "studyTarget": "PDGF-R",
    "uom": "%",
    "PDGF Kinase % Inhibition (P.119)": "−0.6"
  },
  {
    "molecule": "COc1ccc(Oc2cccc(C=C3C(=O)Nc4ccc(I)cc43)c2)cc1 [10739/B08]",
    "studyTarget": "PDGF-R",
    "uom": "%",
    "PDGF Kinase % Inhibition (P.119)": "−0.1"
  },
  {
    "molecule": "Cc1ccc(C=C2C(=O)Nc3ccc(Br)c(C)c32)c(C)c1 [10737/C03]",
    "studyTarget": "PDGF-R",
    "uom": "%",
    "PDGF Kinase % Inhibition (P.119)": 7.0
  },
  {
    "molecule": "O=C1Nc2c(Br)cc(Br)cc2C1=Cc1cc(O)c(O)c(O)c1 [10739/A07]",
    "studyTarget": "PDGF-R",
    "uom": "%",
    "PDGF Kinase % Inhibition (P.119)": 34.8
  }
]

Input line: Note PDGF Kinase % Inhibition (P.119) for the molecule shown: O=C1Nc2ccc(S(=O)(=O)N3CCOCC3)cc2C1=Cc1ccc2ccccc2c1 [10737/F08]
Output line: 9.8

Input line: Please give the documented PDGF Kinase % Inhibition (P.119) of Cc1c(Br)ccc2c1C(=Cc1ccc(Oc3ccccc3)cc1)C(=O)N2 [10737/C09]
Output line: −1.8

Input line: Fill in reported PDGF Kinase % Inhibition (P.119) for this entry: O=C1Nc2ccc(I)cc2C1=Cc1ccc(O)cc1Cl [10739/B06]
Output line: 6.7

Input line: Kindly indicate its recorded PDGF Kinase % Inhibition (P.119). Item: Cc1ccc(C=C2C(=O)Nc3ccc(S(=O)(=O)Nc4ccc(C(F)(F)F)cc4)cc32)c(C)c1 [10737/E03]
Output line: 39.2

Input line: // Input: O=C1Nc2ccc(I)cc2C1=Cc1ccc(OCc2ccccc2)cc1 [10739/B04] . Output its PDGF Kinase % Inhibition (P.119) only.
Output line: 19.8

Input line: Entry CCOc1ccc(C=C2C(=O)Nc3c(Br)cc(Br)cc32)cc1 [10737/A02] needs its PDGF Kinase % Inhibition (P.119) filled in; supply it.
Output line: 6.6

Input line: Return reported PDGF Kinase % Inhibition (P.119). Input molecule: O=C1Nc2ccc(S(=O)(=O)Nc3ccc(C(F)(F)F)cc3)cc2C1=Cc1ccc(OCc2ccccc2)cc1 [10739/E04]
Output line: 5.2

Input line: Note PDGF Kinase % Inhibition (P.119) for the molecule shown: O=C1Nc2ccc(I)cc2C1=Cc1cccc(OCc2ccccc2)c1 [10739/B03]
Output line: 1.8

* * *

Molecular target: EGFR (Homo sapiens, UniProt P00533)
Construct: endogenous in cells; host or cells: A431 cells (lysate, captured with SUMO1 anti-EGFR antibody)
Sequence (P00533 25-1210): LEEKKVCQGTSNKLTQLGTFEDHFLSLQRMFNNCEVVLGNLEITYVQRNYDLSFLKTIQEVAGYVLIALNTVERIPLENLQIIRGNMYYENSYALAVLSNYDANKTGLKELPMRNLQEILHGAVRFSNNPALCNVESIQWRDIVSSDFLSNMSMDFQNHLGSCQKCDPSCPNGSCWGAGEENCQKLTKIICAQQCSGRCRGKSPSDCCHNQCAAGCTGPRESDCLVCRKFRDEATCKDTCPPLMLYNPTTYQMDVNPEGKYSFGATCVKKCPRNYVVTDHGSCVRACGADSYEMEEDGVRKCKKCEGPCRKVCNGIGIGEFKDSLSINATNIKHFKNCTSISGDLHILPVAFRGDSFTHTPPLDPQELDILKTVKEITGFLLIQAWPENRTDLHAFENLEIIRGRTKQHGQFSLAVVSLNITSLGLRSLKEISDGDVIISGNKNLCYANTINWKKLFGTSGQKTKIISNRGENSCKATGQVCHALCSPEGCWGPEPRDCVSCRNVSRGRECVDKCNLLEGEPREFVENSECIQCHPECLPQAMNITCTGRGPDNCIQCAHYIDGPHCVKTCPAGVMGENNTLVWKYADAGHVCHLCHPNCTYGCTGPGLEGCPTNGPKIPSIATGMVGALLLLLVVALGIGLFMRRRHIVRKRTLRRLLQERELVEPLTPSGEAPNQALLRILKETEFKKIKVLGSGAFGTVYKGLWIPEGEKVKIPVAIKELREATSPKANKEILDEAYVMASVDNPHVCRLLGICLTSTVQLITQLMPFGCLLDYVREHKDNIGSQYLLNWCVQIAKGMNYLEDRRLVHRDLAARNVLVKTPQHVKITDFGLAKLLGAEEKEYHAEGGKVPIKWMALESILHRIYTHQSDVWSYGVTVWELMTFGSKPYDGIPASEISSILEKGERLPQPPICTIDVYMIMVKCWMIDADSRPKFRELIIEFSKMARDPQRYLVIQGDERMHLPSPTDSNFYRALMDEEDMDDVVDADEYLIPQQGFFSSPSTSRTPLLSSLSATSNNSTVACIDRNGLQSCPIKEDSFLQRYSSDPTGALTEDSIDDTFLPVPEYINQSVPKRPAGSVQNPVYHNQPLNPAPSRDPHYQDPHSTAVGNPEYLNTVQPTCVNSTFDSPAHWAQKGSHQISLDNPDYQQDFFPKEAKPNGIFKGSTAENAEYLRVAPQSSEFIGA
Experiment: Biochemical EGFR Assay
Parameters: concentration or dose not given beside the values
measurementName: Biochem EGFR % Inhibition (P.167) (%)
Value expressed in %; do not type the unit.

Input line: Output reported Biochem EGFR % Inhibition (P.167) of the molecule `O=C1Nc2ccc(CCCl)cc2C1=Cc1ccc([N+](=O)[O-])cc1` on EGFR (Homo sapiens, UniProt P00533).
Output line: 12.5

Input line: Find Biochem EGFR % Inhibition (P.167) for `Cc1c(Br)cc(Br)c2c1C(=Cc1cccc(Oc3ccccc3)c1)C(=O)N2` on EGFR (Homo sapiens, UniProt P00533) and write it down.
Output line: −10.3

Input line: Please tell me the measured Biochem EGFR % Inhibition (P.167) for `Cc1ccc(C=C2C(=O)Nc3c(Br)cc(Br)c(C)c32)s1` ; system: EGFR (Homo sapiens, UniProt P00533).
Output line: 91.2

Input line: Provide Biochem EGFR % Inhibition (P.167), recorded with EGFR (Homo sapiens, UniProt P00533), of `CCOc1cccc(C=C2C(=O)Nc3c(Br)cc(Br)c(C)c32)c1O`
Output line: −11.9

Input line: Give Biochem EGFR % Inhibition (P.167) for `Cc1c(Br)cc(Br)c2c1C(=Cc1ccc(O)c(Br)c1)C(=O)N2` tested on EGFR (Homo sapiens, UniProt P00533).
Output line: −4.2

* * *

Reported Flk Kinase % Inhibition (P.110) by item:
Tested on: FLK-1 receptor
Test: FLK-1 Assay (cellular/catalytic ELISA, VEGF-stimulated phosphotyrosine)
Format: cell-based
Design: concentration or dose not given beside the values
Settings: protocol P.110
Method: The cellular/catalytic assays described herein are performed in an ELISA format. […] Non-substrate components of the cell lysate are washed away and the amount of phosphorylation on the substrate is detected with an antibody specifically recognizing phosphotyrosine compared with control cells that were not contacted with a test compound. […]
I only need the number, in %, no unit after it.

[
  {
    "querySmiles": "Cc1c(Br)cc(Br)c2c1C(=Cc1ccc(Cl)c(Cl)c1)C(=O)N2",
    "measuredValue": "−12.7"
  }
]

Input line: State its Flk Kinase % Inhibition (P.110) for this compound: `Cc1c(Br)cc(Br)c2c1C(=Cc1cccc(Cl)c1)C(=O)N2`
Output line: 15.5

Input line: Note down Flk Kinase % Inhibition (P.110) recorded for `O=C1Nc2ccc(CCCl)cc2C1=Cc1ccc(Oc2ccccc2)cc1`
Output line: 15.2

Input line: Quick one: give measured Flk Kinase % Inhibition (P.110) for `CNS(=O)(=O)c1ccc2c(c1)C(=Cc1cccc(Oc3ccc(OC)cc3)c1)C(=O)N2`
Output line: 14.3

Input line: State its Flk Kinase % Inhibition (P.110): `CCCCOc1ccc(C=C2C(=O)Nc3ccc(S(=O)(=O)N4CCOCC4)cc32)cc1`
Output line: 8.2

Input line: Supply reported Flk Kinase % Inhibition (P.110) belonging to this compound: `O=C1Nc2ccc(S(=O)(=O)Nc3ccc(C(F)(F)F)cc3)cc2C1=Cc1cccc(F)c1F`
Output line: 14.9

* * *

# reported Flk Kinase % Inhibition (P.110); entries follow
Test system: FLK-1 receptor
Test: FLK-1 Assay (cellular/catalytic ELISA, VEGF-stimulated phosphotyrosine)
Type: cell-based
Parameters: concentration or dose not given beside the values
Answer in %, number only, no unit symbol.

Example molecules with recorded Flk Kinase % Inhibition (P.110):
[
  {
    "querySmiles": "O=C1Nc2c(Br)cc(Br)cc2C1=Cc1ccc(Cl)cc1Cl",
    "uom": "%",
    "measuredValue": 2.2
  },
  {
    "querySmiles": "Cc1c(Br)cc(Br)c2c1C(=Cc1ccc([N+](=O)[O-])cc1)C(=O)N2",
    "uom": "%",
    "measuredValue": 2.6
  },
  {
    "querySmiles": "O=C1Nc2ccc(S(=O)(=O)N3CCOCC3)cc2C1=Cc1ccccc1C(F)(F)F",
    "uom": "%",
    "measuredValue": 16.6
  },
  {
    "querySmiles": "O=C1Nc2ccc(S(=O)(=O)N3CCOCC3)cc2C1=Cc1cccc(Cl)c1",
    "uom": "%",
    "measuredValue": 14.5
  },
  {
    "querySmiles": "O=C1Nc2ccc(I)cc2C1=Cc1cc(Cl)cc(Cl)c1O",
    "uom": "%",
    "measuredValue": 21.7
  }
]

Now, please, on to the next molecule.
Input line: Output measured Flk Kinase % Inhibition (P.110) for this item: `Cc1c(Br)cc(Br)c2c1C(=Cc1cc(F)cc(F)c1)C(=O)N2`
Output line: 12.8
